Measured pKi, listed per entry for reference.
- assayed system: VMAT2 (human platelet homogenate) (Homo sapiens (Human));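 also: competition binding with 90 min incubation at 25 °C, after which filter-retained radioligand was measured by scintillation counting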
- Sequence (Q05940 whole entry): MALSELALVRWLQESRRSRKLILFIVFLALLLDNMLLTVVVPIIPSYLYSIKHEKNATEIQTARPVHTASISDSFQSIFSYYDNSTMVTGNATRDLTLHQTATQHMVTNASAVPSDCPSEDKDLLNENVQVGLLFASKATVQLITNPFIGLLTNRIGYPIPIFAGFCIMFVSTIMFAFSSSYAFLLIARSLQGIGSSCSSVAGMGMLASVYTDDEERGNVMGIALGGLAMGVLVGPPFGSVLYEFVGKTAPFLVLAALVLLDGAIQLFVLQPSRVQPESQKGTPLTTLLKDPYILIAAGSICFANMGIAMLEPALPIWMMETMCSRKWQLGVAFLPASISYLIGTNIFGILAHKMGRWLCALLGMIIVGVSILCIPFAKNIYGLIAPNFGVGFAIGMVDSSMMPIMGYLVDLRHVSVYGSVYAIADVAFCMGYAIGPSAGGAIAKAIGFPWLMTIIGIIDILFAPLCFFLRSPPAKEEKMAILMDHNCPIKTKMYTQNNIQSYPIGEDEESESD
pKi: −log10 of the molar value.

compound | pKi
COc1cc2c(cc1OC)[C@H]1C[C@@H](COC(=O)C[C@@H]3NC(=O)NC3=O)[C@H](CC(C)C)CN1CC2 | 6.30 to 8.00
COc1cc2c(cc1OC)[C@H]1C[C@@H](COC(=O)C(N)c3ccccc3OC)[C@H](CC(C)C)CN1CC2 (stereo partly shown) | 6.30 to 8.00
COc1cc2c(cc1OC)[C@H]1C[C@@H](COC(=O)CC3CCNC3)[C@H](CC(C)C)CN1CC2 (stereo partly shown) | > 8.00
COc1cc2c(cc1OC)[C@H]1C[C@@H](COC(=O)NCC(C)C(=O)O)[C@H](CC(C)C)CN1CC2 (stereo partly shown) | < 6.30
COc1cc2c(cc1OC)[C@H]1C[C@@H](COC(=O)[C@@H]3CCN(Cc4ccccc4)C3)[C@H](CC(C)C)CN1CC2 | > 8.00
COc1cc2c(cc1OC)[C@H]1C[C@@H](COC(=O)C3NCc4ccccc43)[C@H](CC(C)C)CN1CC2 (stereo partly shown) | 6.30 to 8.00
COc1cc2c(cc1OC)[C@H]1C[C@@H](COC(=O)NC3C4CCC(C4)C3C(=O)O)[C@H](CC(C)C)CN1CC2 (stereo partly shown) | 6.30 to 8.00
COc1cc2c(cc1OC)[C@H]1C[C@@H](COCC(=O)c3ccc(F)cc3)[C@H](CC(C)C)CN1CC2 | < 6.30
COc1cc2c(cc1OC)[C@H]1C[C@@H](COC(=O)[C@@H]3CCCN(Cc4ccccc4)C3)[C@H](CC(C)C)CN1CC2 | > 8.00
CCCCCCOCC1CC2c3cc(OC)c(OC)cc3CCN2CC1CC(C)C (stereo not shown) | 6.30 to 8.00
COc1cc2c(cc1OC)[C@H]1C[C@@H](COC(=O)CC3(CC(=O)O)CCCC3)[C@H](CC(C)C)CN1CC2 | 6.30 to 8.00
COc1cc2c(cc1OC)[C@H]1C[C@@H](COC(=O)CS(=O)(=O)O)[C@H](CC(C)C)CN1CC2 | < 6.30
CCS(=O)(=O)NCCC(=O)OC[C@@H]1C[C@@H]2c3cc(OC)c(OC)cc3CCN2C[C@H]1CC(C)C | > 8.00
COc1cc2c(cc1OC)[C@H]1C[C@@H](COC(=O)CC3CCCCN3)[C@H](CC(C)C)CN1CC2 (stereo partly shown) | > 8.00
COc1cc2c(cc1OC)[C@H]1C[C@@H](COC(=O)N3CCNCC3)[C@H](CC(C)C)CN1CC2 | > 8.00
COc1cc2c(cc1OC)[C@H]1C[C@@H](COCCC3CCNCC3)[C@H](CC(C)C)CN1CC2 | > 8.00
COc1cc2c(cc1OC)[C@H]1C[C@@H](COC(=O)NC(C)CC(=O)O)[C@H](CC(C)C)CN1CC2 (stereo partly shown) | < 6.30
COc1cc2c(cc1OC)[C@H]1C[C@@H](COC(=O)CC3CCCN3)[C@H](CC(C)C)CN1CC2 (stereo partly shown) | > 8.00
COc1cc2c(cc1OC)[C@H]1C[C@@H](COC(=O)CC(C)(C)CC(=O)O)[C@H](CC(C)C)CN1CC2 | < 6.30
COc1cc2c(cc1OC)[C@H]1C[C@@H](COC(=O)N3CCN[C@@H](C(=O)O)C3)[C@H](CC(C)C)CN1CC2 | 6.30 to 8.00
COc1cc2c(cc1OC)[C@H]1C[C@@H](COC(=O)N3C[C@@H]4C[C@H]3CN4)[C@H](CC(C)C)CN1CC2 | > 8.00
COc1cc2c(cc1OC)[C@H]1C[C@@H](COC(=O)N(C)C(C)C(=O)O)[C@H](CC(C)C)CN1CC2 (stereo partly shown) | < 6.30
COc1cc2c(cc1OC)[C@H]1C[C@@H](COC(=O)[C@H]3CCN(Cc4ccccc4)C3)[C@H](CC(C)C)CN1CC2 | > 8.00
COc1cc2c(cc1OC)[C@H]1C[C@@H](COC(=O)N3CC(C)NCC3C)[C@H](CC(C)C)CN1CC2 (stereo partly shown) | > 8.00
COc1cc2c(cc1OC)[C@H]1C[C@@H](COC(=O)N3CC4CCC(C3)N4)[C@H](CC(C)C)CN1CC2 | > 8.00
COc1cc2c(cc1OC)[C@H]1C[C@@H](COC(=O)CC(C)(C)n3cccc3)[C@H](CC(C)C)CN1CC2 | 6.30 to 8.00
COc1cc2c(cc1OC)[C@H]1C[C@@H](COC(=O)CCN(C)C)[C@H](CC(C)C)CN1CC2 | > 8.00
COc1cc2c(cc1OC)[C@H]1C[C@@H](COC(=O)C[C@H]3CCNC3)[C@H](CC(C)C)CN1CC2 | > 8.00

Reference source: patent US11053242B2
